I'd appreciate it if you could supply binding affinity ratio (IC50 of standard peptide / IC50 of test peptide) values for the items below.
experimental_system: HLA-A*0202 (human)
assay_remarks: competition with 125I-labelled standard peptide 941.01 for purified HLA-A*0202, gel filtration
Enter the number alone.

Can you share its binding affinity ratio (IC50 of standard peptide / IC50 of test peptide)? I mean this binder: RAVCGGVL (modifications not checked) [RAVCGGVL (PSA, position 43)]
-0.0001

What about RAYSEKVT (modifications not checked) [RAYSEKVT (Kallikrein, position 186)] ?
-0.0001

And what about the binder RLSEPAKI (modifications not checked) [RLSEPAKI (Kallikrein, position 125)] ?
0.0005

Then this binder: RLSEPAKIT (modifications not checked) [… (Kallikrein, position 125)]
-0.0002

Check SIALSVGCT (modifications not checked) [… (Kallikrein, position 7)] too.
0.0006
